- measurement notes: yeast display, Sf9 membrane polyspecificity reagent, FACS + sequencing; frameworks hold sequencing errors
measure name: polyreactivity (PSR sort gate)

[[record]]
polymer_sequence = "QVQLEESGGGLVQAGGSLRLSCAASGFILEYYAMGWSRQATGKETELVSTISSGGSTNYADSVKGRFTISSDNAKNTVYFQMNRLKPEDTAVFYCAAARYTLSRYYYWGQGTQLTVSS"
measure_name = "polyreactivity (PSR sort gate)"
recorded_measurement = "high polyreactivity"

[[record]]
polymer_sequence = "QVQLVESGGGLVQAGGSLRLSCAASGSIFNIYARGWYRQAPGKERELVATITGIADSTYYADSVKGRFTISRDNAKNTVYLQMNSLKPEDTAVYYCNADPSGVFFYSLEFDYWGQGTQVTVSS"
measure_name = "polyreactivity (PSR sort gate)"
recorded_measurement = "low polyreactivity"

[[record]]
polymer_sequence = "QVQLVESGGGLVQAGGSLRLSCAASGRIFRWYAMGWYRQAPGKERELVAAISYSGGSTYYADSVKGRFTISRDNAKNTVYLQMNSLKPEDTAVYYCAAATYYKFDYWGQGTQVTVSS"
measure_name = "polyreactivity (PSR sort gate)"
recorded_measurement = "high polyreactivity"

[[record]]
polymer_sequence = "QVQLVESGGGLVQAGGSLRLSCAASGSISGYYDMGWYRQAPGKERELVAASSWNGADTYYADSVKGRFTISRDNAKNTVYLQMNSLKPEDTAVYYCAAERENGDHYRYYYWGQGTQVNVSS"
measure_name = "polyreactivity (PSR sort gate)"
recorded_measurement = "low polyreactivity"

[[record]]
polymer_sequence = "QVQLVESGGGLVQAGGSLRLSCAASGFTFTYYAMGWYRQAPGKERELVAAISWSGDSTYYADSVKGRFTISRDNAKNTVYLQMNSLKPEDTAVYYCATEYSHTYDYWGQGTQVTVSS"
measure_name = "polyreactivity (PSR sort gate)"
recorded_measurement = "low polyreactivity"

[[record]]
polymer_sequence = "QVQLVESGGGLVQAGGSLRLSCAASGNTYSYNAMGWYRQAPGKEREFVASISRRGGRTNYADSVKGRFTISRDNAKNTVYLQMNSLKPEDTAVYYCAATTVPLGDYWGQVTQVTVSS"
measure_name = "polyreactivity (PSR sort gate)"
recorded_measurement = "high polyreactivity"

[[record]]
polymer_sequence = "QVQLVESGGGLVQAGGSLRLSCAASGSTFWYYTMGWSRQAPGKERELVAGITSGGSTYYADSVKGRFTISRDNAKNTVYLQMNSLKPEDTAVYYCAKRYYGRGYYYWGQGTQVTVSS"
measure_name = "polyreactivity (PSR sort gate)"
recorded_measurement = "high polyreactivity"

[[record]]
polymer_sequence = "QVQLVESGAGLVHAGGSLRLSCAASGRTFSSNAMGGYRQAPGKERELVAGITWGGGSTYYADSVKGRFTISRDNAKNTVYLQMYSLKPEDTAVYYCAKSAGKRGYQVDYWVQGTQVTVSS"
measure_name = "polyreactivity (PSR sort gate)"
recorded_measurement = "high polyreactivity"

[[record]]
polymer_sequence = "QVQLVESGGGLVQAGGSLRLSCAASGFTFSQYAMGWYRQAPGKERELVAAISRSGGSTYYADSVKGRFTISRDNAKNTVYLQMNSLKPEDTAVYYCAARGPVGYGWRYRPWHDYWGQGTQVTVSS"
measure_name = "polyreactivity (PSR sort gate)"
recorded_measurement = "high polyreactivity"

[[record]]
polymer_sequence = "QVQLVESGGGLVQAGGSLRLCCAASGLTFYPNAMGWYRQAPGKEREFVASISISGRTYYADSVKGRFTISRDNAKNTVYLQMNSLKPEDTAVYYCAARYVRSGLYRKYDYWGQGTQVTVSS"
measure_name = "polyreactivity (PSR sort gate)"
recorded_measurement = "high polyreactivity"

[[record]]
polymer_sequence = "QVQLVDSGGGLVQAGGSLRLSCAASGRIFYRYALGWYRQAPGKERELVAAITRGGRTNYADSVKGRFTISRDNAQNTVYLQMNSLKPEDTAVYYCRPLWYGFDYWGQGTQVTVSS"
measure_name = "polyreactivity (PSR sort gate)"
recorded_measurement = "high polyreactivity"

[[record]]
polymer_sequence = "QVQLVESGGGLVQAGVSLRLSCAASGRIFHFYAMGCYRQAPGKERELVASITWRGGRTYYADSVKARFTISRDNAKNTVFLQMNSLKPEDTAVYYCAADFRSGFSSSTTPVQSDWGQGTQVTVSS"
measure_name = "polyreactivity (PSR sort gate)"
recorded_measurement = "low polyreactivity"

[[record]]
polymer_sequence = "QVQLVDSGGGLVQAGGSLRLSCPASGSIIPYNALGWYRQAPGKERELVATISSGGSTNYADSVKGRFTISRDNAKNTVYFQMNSLKPEDTAVYYCAADVIVFYYAPNYWGDIEYGYWGQGTQVTVSS"
measure_name = "polyreactivity (PSR sort gate)"
recorded_measurement = "low polyreactivity"

[[record]]
polymer_sequence = "QVQLVESGGGLVQAGGSLRLSCAASGSIISSYTMGWYRQAPGKERELVAVITSGDSTNYADSVKGRFTISRDNAKNTVYLEMNSLKPEDTAVYYCNADYVKVFKLQFDYWGQGTQVTVSS"
measure_name = "polyreactivity (PSR sort gate)"
recorded_measurement = "low polyreactivity"

[[record]]
polymer_sequence = "QVQLVESGGGLVQAGGSLRISCAASGRIFDLYAMGWYRQPPGKERELVASISSDGSTNYADSVKGRFTISRDNAKNTVYLQMNSLKPEDTAVYYCATRKGRRYGYNYWGQGTQVTVSS"
measure_name = "polyreactivity (PSR sort gate)"
recorded_measurement = "high polyreactivity"

[[record]]
polymer_sequence = "QVHLVESGGGLVQAGGSLRLSCAASGGTLYANAKGWYRQAPGKERELVATITSSSGSTSYADSVKGRFSISRDNAKNTVYLQKNSLKPEDTAVYYCAKDSHAQGPYRYIHYHHTGDYWGQGTQVTVSS"
measure_name = "polyreactivity (PSR sort gate)"
recorded_measurement = "low polyreactivity"

[[record]]
polymer_sequence = "QVQLVESGGGLVQAGGSDRLSCAASGSIIDYYAMGWYRQAPGKERELVADITVTGDGTYYADSVKGRFTISRDNAKNTVYLQMNSLKPEDTAVYYCAAAGVYYGVRGTTYAYDYWGQGTQVTVSS"
measure_name = "polyreactivity (PSR sort gate)"
recorded_measurement = "low polyreactivity"

[[record]]
polymer_sequence = "QVQLVESGGGLVQAGGSLRLSCAASGRTFSTNVMGWYRQAPGKERELVAAITTSSSRTYYADSVKGRFTISRDNAKNTVYLQMNSLKPEDTAVYYCAARIHGSWSFDYWGQCTQVTVSS"
measure_name = "polyreactivity (PSR sort gate)"
recorded_measurement = "low polyreactivity"

[[record]]
polymer_sequence = "QVQLVESGGGLVQAGGSLRLSCAASGSTFFPYAMGWYRQAPGKERELVAAIRWSGGRTYYADSVKGRFTISRDNAKNTVYLQMNSLNPEDTAVYYCAAAKYLDYDYWGQGTQVTVSS"
measure_name = "polyreactivity (PSR sort gate)"
recorded_measurement = "high polyreactivity"

[[record]]
polymer_sequence = "QVPLVESVGGLVQAGGSLRLSCAASGSTFLSNAMGWYRQAPGKERELVASINWIGGSTRYADSVKGRFTISRDNAKNTVYLQMNSLKPEDTAVYYCASRRRWGGHGAFLYYYWGQGTQVTVSS"
measure_name = "polyreactivity (PSR sort gate)"
recorded_measurement = "high polyreactivity"

[[record]]
polymer_sequence = "QVQLVESGGGLVQAGGSLRLSCAASGFTFYRYAMGWYRQAPGKEREFVAVINIRGSTTYYADSVKGRFTISRDNAKNTVYLQMNSLKPEDTAVYYCARRYRGPYYSLPRRKEFDYWGQGTQVTVSS"
measure_name = "polyreactivity (PSR sort gate)"
recorded_measurement = "high polyreactivity"


###

- measurement notes: yeast display, Sf9 membrane polyspecificity reagent, FACS + sequencing; frameworks hold sequencing errors
measure name: polyreactivity (PSR sort gate)

[[record]]
polymer_sequence = "QVQLVESGGGLVQAGGSLRLSCAASGRTFAFNAMGWCRQAPGKDRELVAAISQGADSTYYADSVKGRFTISRDNAKNPVDLQMNSLKPEDTAVYYCAAEAQYNFYSYDYWGQGTQVTVSS"
recorded_measurement = "low polyreactivity"

[[record]]
polymer_sequence = "QVQLVESGGGLVQAGGSLRLSCAASGLIFYSYAMGWYRQAPGKERELVAAISKRGGSTYYADSVKGRFTISRDNAKNTVYLQMNSLKPEDTAVYYCAAVIHGSSQYYGGTYGRYYWGQGTQVTVSS"
recorded_measurement = "high polyreactivity"

[[record]]
polymer_sequence = "QVQLVESGGGLVQAGGSLRLSFAASGITFASNTMGWYRQAPGKERELVAAITRGDNTYYADSVKGRFTISRDNAKNTVYLQMKSLKPEDTAVYYCAKDPHGVEPVPDGYDYWGQGTQVTVSS"
recorded_measurement = "low polyreactivity"

[[record]]
polymer_sequence = "QVQLVESGGGLVQAGGSLRLSCAASGSIFRTYAMGWYIQAPGKERELVAAIRRSGGRTYYADSVKGRFTISRDNAKNTVYLQMNSLKPEDTAVYYCNKRVSKQSKYDYWGQGTQVTVSS"
recorded_measurement = "high polyreactivity"

[[record]]
polymer_sequence = "QVQLVESGGGLVQAGGSLRLSCAASGFTFSYNTMGWYRQAPGKERELVAAISRSGGRTYYADSVKGRFTISRDNAKNTVYLQMNSLKPEDTAVYYCARYSVTGYGANSGPEMDYWGQGTQVTVSS"
recorded_measurement = "high polyreactivity"


Reference for the values: the nanobody polyreactivity screen of Harvey et al. (2022)
